target_desc: UniProtKB I3LVF1
Sequence (I3LVF1 1-370): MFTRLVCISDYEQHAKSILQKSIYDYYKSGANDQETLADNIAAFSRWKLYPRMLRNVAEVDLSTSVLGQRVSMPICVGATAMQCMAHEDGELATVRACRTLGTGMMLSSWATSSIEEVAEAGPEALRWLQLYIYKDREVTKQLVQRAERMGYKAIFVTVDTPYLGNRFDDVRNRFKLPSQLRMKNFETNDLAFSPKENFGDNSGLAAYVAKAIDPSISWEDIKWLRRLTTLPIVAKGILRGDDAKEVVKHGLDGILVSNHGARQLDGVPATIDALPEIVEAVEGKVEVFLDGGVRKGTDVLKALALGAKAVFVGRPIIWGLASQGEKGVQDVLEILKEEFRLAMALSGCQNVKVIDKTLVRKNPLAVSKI
quantity_measured: pIC50
Keep it numeric: pIC50 is minus log10 of the concentration in mol/L.

O=C(O)C(=O)CC(=O)c1ccc(-c2ccc(Br)cc2)cc1: 7.15

Attention now turns to another entry.
Task: Please give measured pIC50 of the following entry: O=C(O)C(=O)CC(=O)c1ccc(C2CCCc3ccccc32)cc1 (centres unmarked)
Result: 5.68
